- Tested on: P388 leukemia ip, CD2F1 mice, survival T/C
- testSummary: NCI In Vivo Anticancer Drug Screen. Data for tumor model P388 Leukemia (intraperitoneal) in CD2F1 (CDF1) mice
- conditionInfo: endpoint: median survival time; dose: 200.0 mg/kg/injection; schedule: Q01DX009 (ip); vehicle: other; higher = longer survival
Toxic doses and inconclusive results are not listed.
Listed here are molecules together with their documented T/C.

CCCCCCCCN1C(=O)c2ccccc2C1=O ... 98 % of control

Please look up its T/C: "CCOC(=O)NNCC(=O)OCc1ccccc1"
109 % of control

"COc1ccc(S(=O)(=O)NN)cc1" ?
106 % of control

CC(=O)OC1OC(COS(=O)(=O)c2ccc(C)cc2)C(OC(C)=O)C(OC(C)=O)C1OC(C)=O (stereo not drawn) ?
92 % of control

"O=C(c1cc2c(cc1Br)OCO2)N1CCCc2ccccc21" ?
97 % of control

"COc1ccc(Br)c(C(=O)O)c1OS(=O)(=O)c1ccc(C)cc1" ?
105 % of control

"COc1ccc([N+](=O)[O-])c(OC(C)=O)c1OC" ?
89 % of control

O=C(O)CCCCCCCCCOC(C[N+](=O)[O-])C(Cl)(Cl)Cl (stereo not drawn) ?
113 % of control

----------
Listed here are compounds together with their documented T/C.
- System: P388 leukemia ip, CD2F1 mice, survival T/C
- testSummary: NCI In Vivo Anticancer Drug Screen. Data for tumor model P388 Leukemia (intraperitoneal) in CD2F1 (CDF1) mice
- conditionInfo: endpoint: median survival time; dose: 25.0 mg/kg/injection; schedule: Q01DX005 (ip); vehicle: Klucel (hydroxypropylcellulose) (HPC); higher = longer survival
Toxic doses and inconclusive results are not listed.

Observe how each entry below is paired with its result.
c1ccc(-c2nc(N3CCN(c4ccco4)CC3)c3c4c(sc3n2)CCC4)cc1 ... 90 % of control
CCOP(=O)(CSc1ccccc1)NC1CCCCC1 (stereo not given) ... 94 % of control
Nn1c(-c2nn[nH]n2)nnc1-c1nn[nH]n1 ... 100 % of control
CC1(C)CCCC2(C)C3=C(CCC12)C(=O)OC3 (stereo not given) ... 101 % of control
Cn1c(=O)c2c(ncn2Cc2ccc(O)c([N+](=O)[O-])c2)n(C)c1=O ... 91 % of control

Query for P388 leukemia ip, CD2F1 mice, survival T/C: what T/C does the record show for "CC(=O)Nc1ccc(S(=O)(=O)n2c(=O)oc3cc(Br)ccc32)cc1" ?
94 % of control

"Cc1cc(O)c2c(c1O)C(=O)c1cccc(O)c1C2=O" ?
97 % of control

"COc1ccc(C(=O)O[C@@H]2CCN3CC[C@H](C)[C@H]23)cc1" ?
102 % of control

"COc1ccc2c3c1O[C@H](c1ccc(O)cc1)[C@H]3[N+](C)(C)CC2" ?
110 % of control

COc1ccc2c(c1)C(c1cccc3ccccc13)OC2=O (stereo not given) ?
87 % of control

CCOC(=O)/N=C1/CCCC(=O)C1O (stereo not given) ?
102 % of control

"CCOC(=O)N1Cc2cc3ncccc3nc2C1" ?
111 % of control

"COc1ccc(/C=N/n2cnc3c(sc4ccccc43)c2=O)cc1" ?
100 % of control

CN(C(=O)c1ccccc1)C1CCCC(=O)CC1 (stereo not given) ?
105 % of control

"Cc1nc2ccccc2c(=O)n1/N=C1\C(=O)N(C)c2ccccc21" ?
96 % of control

"CCCCN(CCCC)c1ccc(C(=N)c2ccc(N(CCCC)CCCC)cc2)cc1" ?
117 % of control

"NC(=O)NC(=O)/C=C/C(=O)OCCCl" ?
94 % of control

Source of measurements: PubChem BioAssay AID330
